The reported numbers originate from patent US11649460B2.

- PROTOCOL_SUMMARY: in vitro
- EXPERIMENTAL_SETUP: human
READOUT_NAME: viability at 0.05 µM (%)
Write the answer as a number in %, unit excluded.

// field: viability at 0.05 µM; key: CC(=O)O[C@H]1C(=O)[C@@]2(C)[C@H]([C@H](OC(=O)c3ccccc3)[C@]3(O)C[C@H](OC(=O)[C@H](O)[C@@H](NC(=O)c4ccccc4)c4ccccc4)C(C)=C1C3(C)C)[C@]1(OC(C)=O)CO[C@@H]1C[C@@H]2O [Paclitaxel, reference compound] ; value = 28.7
